Listed compounds paired with reported cell viability
Tested on: HepG2
Test: cell viability relative to DMSO; higher = less toxic
Conditions: 72 h; 10000 nM
Write it as a number; the unit % goes unstated.

compound: CN(C)C[C@H](O)Cn1c2ccc(Br)cc2c2cc(Br)ccc21 (racemic)
reading: 27.2

Moving on to another compound below.
Reported cell viability of `COc1c(-c2ccc3cc(NS(C)(=O)=O)ccc3c2)cc(-n2ccc(=O)[nH]c2=O)cc1C(C)(C)C` : 109

====

Test system: Caco-2
Assay: cell viability relative to DMSO; higher = less toxic
Conditions: 72 h; 1 nM
Each entry below carries its recorded cell viability.
Your answer should be a number followed by the unit of measure.

compound: CCC(=O)OCC(=O)[C@@]1(OC(=O)CC)[C@@H](C)C[C@H]2[C@@H]3CCC4=CC(=O)C=C[C@]4(C)[C@@]3(F)[C@@H](O)C[C@@]21C [BETAMETHASONE 17,21-DIPROPIONATE]
target.or.test.system: Caco-2
cell viability: 99%
--
compound: O=C(Nc1ccc([N+](=O)[O-])cc1Cl)c1cc(Cl)ccc1O [niclosamide]
target.or.test.system: Caco-2
cell viability: 101%
--
compound: Cc1cc(O)cc2c1O[C@](C)(CCC[C@H](C)CCC[C@H](C)CCCC(C)C)CC2
target.or.test.system: Caco-2
cell viability: 102%
--
compound: CN1C(=O)CC(C)(c2ccccc2)C1=O (stereo unspecified) [methsuximide]
target.or.test.system: Caco-2
cell viability: 97.5%
--
compound: O=C(OCCN1CCOCC1)C1(c2ccccc2)CCCCC1
target.or.test.system: Caco-2
cell viability: 108%

Turning now to a further compound:
For record `O=C1c2ccccc2-c2n[nH]c3cccc1c23` the listed cell viability is 111%

====

Measured drug sensitivity score, listed per entry.
Tested on: Caco-2
Assay: drug sensitivity score (DSS) for viability; higher = more toxic; extreme values may be limits of the assay
Details: 72 h
# respond with the number and nothing more

compound: CCC(C)(C)c1ccc(CC(C)CN2C[C@@H](C)O[C@@H](C)C2)cc1 (stereo partly specified) [amorolfine]
target.or.test.system: Caco-2
drug sensitivity score: 2.5

compound: O=C1NCCN1CCN1CCC(c2cn(-c3ccc(F)cc3)c3ccc(Cl)cc23)CC1 [sertindole]
target.or.test.system: Caco-2
drug sensitivity score: 4.6

compound: N=C(N)NC(=N)Nc1cccc(Cl)c1 [m-chlorophenylbiguanide]
target.or.test.system: Caco-2
drug sensitivity score: 0

compound: CN(C)CC[C@@H](c1ccc(Cl)cc1)c1ccccn1 [chlorphenamine]
target.or.test.system: Caco-2
drug sensitivity score: 0

compound: COc1ccc(-c2nc3cc(C4=NNC(=O)CC4C)ccc3[nH]2)cc1 (stereo unspecified) [pimobendan]
target.or.test.system: Caco-2
drug sensitivity score: 1

drug sensitivity score measured on N=C(N)Nc1ccc(C(=O)Oc2ccc3cc(C(=N)N)ccc3c2)cc1 [nafamostat] = 0

For record O=C1c2ccccc2C(=O)C1c1ccc(Cl)cc1 [chlorindione] the listed drug sensitivity score is 0

What the record says about OCCCCO [1,4-butanediol] : drug sensitivity score is 0

Reported drug sensitivity score ( Cc1cc(CC(=O)O)n(C)c1C(=O)c1ccc(Cl)cc1 [zomepirac] ) = 7.3

Noted for N#C/C(=C1/SCC(c2ccccc2Cl)S1)n1ccnc1 (stereo unspecified) [lanoconazole] : its drug sensitivity score reads 0

Given item O=C1CCC[C@@H]2[C@H]3C[C@@H](CN12)[C@@H]1CCCCN1C3 [lupanine] , the value recorded as its drug sensitivity score is 1.8

Quick note, drug sensitivity score for Cc1cc(C)c(/C=C2\C(=O)Nc3ccccc32)[nH]1 [semaxanib] landed at 0

Measured drug sensitivity score of O=c1c(O)c(-c2ccc(O)c(O)c2)oc2cc(O)cc(O)c12 [quercetin] : 1.9

So for `Clc1cccc2c1CN(C1=NCCN1)C2` , the logged drug sensitivity score turned out to be 0

drug sensitivity score measured on CCOc1cc(N)c(Cl)cc1C(=O)NCC1CN(Cc2ccc(F)cc2)CCO1 (stereo unspecified) [mosapride] = 0
